Give half-life at 50 μM for every item shown.
Assay Protocol: COS/H2S release monitored by PNA formation (UV-Vis) in PBS containing CA
Format: physicochemical
Measurement Context: PBS containing carbonic anhydrase (CA), pH 7.4, pH 7.4 PBS, 37° C.; ln(2)/kobs
Enter your answer as a number in h; do not include the unit.

Enquiry: Which half-life at 50 μM value is on record for CC(=O)CCOC(=O)Nc1ccc([N+](=O)[O-])cc1 [γ-KetoCM-1] ?
Return: 13.4

Enquiry: Now consider CC(=O)CCOC(=S)Nc1ccc([N+](=O)[O-])cc1 [γ-KetoTCM-1] and answer again.
Return: 4.26

Enquiry: Again, but for CC(=O)C(C)COC(=S)Nc1ccc([N+](=O)[O-])cc1 (stereo not drawn) [γ-KetoTCM-2]
Return: 25.9

###

Assay Protocol: COS/H2S release monitored by PNA formation (UV-Vis) in PBS containing CA
Format: physicochemical
Measurement Context: PBS containing carbonic anhydrase (CA), pH 6, pH 6.0 PBS, 37° C.; ln(2)/kobs
Value Kind: half-life at 50 μM (h)
Lab book: enter the figure in h, no units written.

Enquiry: Reported half-life at 50 μM, molecule `CC(=O)CCOC(=S)Nc1ccc([N+](=O)[O-])cc1` : ____
Return: 50.7

###

Assay Protocol: COS/H2S release monitored by PNA formation (UV-Vis) in PBS containing CA
Assay type: physicochemical
Measurement Context: PBS containing carbonic anhydrase (CA), pH 8, pH 8.0 PBS, 37° C.
Procedure: To investigate COS/H2S release from donor compound embodiments, γ-KetoTCM-1 (50 μM) was incubated in PBS (pH 7.4, 10 mM) containing CA (25 μg/mL) and H2S release was detected by monitoring para-nitroaniline (PNA) formation at 37° C. […] The absorbance (250-500 nm) was measured and recorded by using Agilent Cary 100 or Cary 60 UV-Vis spectrometers at 37° C. kobs was then obtained by plotting the absorbance ratio of PNA and γ-KetoTCM-1 versus time and t1/2 was calculated by dividing In(2) by kobs. […]
Value Kind: half-life at 50 μM (min)
Write the value in min as a bare number.

Enquiry: What does the record list as half-life at 50 μM for `CC(=O)CCOC(=S)Nc1ccc([N+](=O)[O-])cc1` ?
Return: 91.8
